test: yeast display, Sf9 membrane polyspecificity reagent, FACS + sequencing; frameworks hold sequencing errors
quantity.kind: polyreactivity (PSR sort gate)

# sequence.text, value.reported
records = [
    ("QVQLVESGGGLDQAGGSLRLSCAASGSTFFKYAMGWYRQAPAKERELVAAISQNGGSTYYADSVKGRFTISRDNAKNTVYFQMNSLNPEDTAVYYCATGPNSYDYWGQGNQVTVSS", "high polyreactivity"),
    ("QDQLVESGGGLVQSGGSLRLSCAASGSTFYYYAMGWYRQAPGKERELVAAITSSTGRTYYADSVKGRFTISRDNAKYTVYLQMNSLKPEDTAVYYCITRRGSLSGLYVYSIQGYDYWGQGTQVTVSS", "low polyreactivity"),
    ("QVQLVESGGGLVQAGGSHRLSCAASGSTFVPYTMGWYRQAPGKERELVAAISGSGGTDYADSVKGRFTISRDNAKNTVYLQMNSLKPEDTAVYYCATDGLDFWFIYDYWGQGTQVTVST", "low polyreactivity"),
    ("QVQLVESGGGLVQAGGSLRLSCAASGFTINFYAMGWYRKAPGKERELVAAITASGGGSTYYADSVKGRFTISRDNAKNTVYLQMNSLKPEDTAVYYCNADYPGSFYTYDYWGQGTQVTVSS", "low polyreactivity"),
    ("QVQLVESGGGLVQAGGSLRLSCAASGSTFAFNAMGWYRPAPGKERELVASISGSGSSTYYADSVKGRFTISRDNAKNTVYLQMNSLKPEDTAVYYCAARVGARVSPPRRHGRFNYWGQGTQVTVSS", "high polyreactivity"),
    ("QVQLVESWGGLDQAGGSLRLSCAASGIIFQYYAMGWYRQAPGKERELVAAISWSGGSTYYADSVKGRFTISRDNAKNTVYLQMNSLKPEDTAVYYCAARSRSYWPYEGDYWGQGSQVTVSS", "low polyreactivity"),
    ("QVQLVESGGGLVQAGGSLRLSCAASGLTFVAYAMGWYRQAPGKERELVAAITRRGGSTYYADSVTGRFTISRDNAKNTVYLQMNSLKPEDTAVYYCAAEGSYSRNPGFDYWGQGTQVTVSS", "high polyreactivity"),
    ("QVQLVESGGGLVQAGGSLRLSCAASGFIFYRYAMGWYRQAPGKERELVAAISYSGGSTYYADSVKGRFTISRDNAKNTVYLQMNSLKPEDTAVYYCAAGSKYRYDYWGQGTQVTVSS", "high polyreactivity"),
    ("QVQLVESGGGLVQAGGSLRLSCAASGIIFHYYAMGWYRQAPGKEREFVASISFSGASTYYADSVKGRFTISRDNAKNTVYLQMNSLKPEDTAVYYCAARYLYGPKYYYCGQGTQVTVSS", "high polyreactivity"),
]

---

assay: yeast display, Sf9 membrane polyspecificity reagent, FACS + sequencing; frameworks hold sequencing errors

# sequence.text, polyreactivity (PSR sort gate)
measured = [
    ("QVHLVESGGGLVQAGGSLRLSCAASGSIFPYAMGWYRHAPAKERELVAVISWSGASTYYADSVKGRFTISRDNAKNTVYLQMNSLKQEDTAVYYCAVYRYYKLVHLYGYDYWGQGTQVTVSS", "high polyreactivity"),
    ("QVQLVESGGGLVQAGGSLRLSCAASGSTFYRYAMGWYRQAPGKERELVARITWSAGRTYYADSVKGRFTISRDTAKNTVYLQMNSLKPEDTAVYYCAADSGGFASNKRMDYWGQGTQVTVSS", "high polyreactivity"),
]
